Ki values by entry
Target: A2AAR (Homo sapiens, UniProt P29274)
Sequence (P29274 whole entry): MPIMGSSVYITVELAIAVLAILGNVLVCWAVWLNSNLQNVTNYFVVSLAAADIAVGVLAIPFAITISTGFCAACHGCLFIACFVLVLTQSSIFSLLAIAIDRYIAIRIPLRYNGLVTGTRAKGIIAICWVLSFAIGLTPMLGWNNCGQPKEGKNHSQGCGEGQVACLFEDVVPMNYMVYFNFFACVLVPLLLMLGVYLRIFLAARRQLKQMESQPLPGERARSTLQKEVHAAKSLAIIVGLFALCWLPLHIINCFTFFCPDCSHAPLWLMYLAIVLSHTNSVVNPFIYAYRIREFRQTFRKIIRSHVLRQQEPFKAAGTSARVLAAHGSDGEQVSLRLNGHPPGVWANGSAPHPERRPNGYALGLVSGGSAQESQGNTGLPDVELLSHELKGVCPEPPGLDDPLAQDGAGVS
MEASUREMENT_LABEL: Ki (nM)

* Nc1nc2c(cnn2CCCc2ccc(OCC(=O)NCCCCNC(=O)CCCCCNC(=O)COc3ccc(/C=C/C4=[N+]5C(=Cc6ccc(-c7cccs7)n6[B-]5(F)F)C=C4)cc3)cc2)c2nc(-c3ccco3)nn12 | 24.6
* NCCCCCNC(=O)COc1ccc(CCCn2ncc3c2nc(N)n2nc(-c4ccco4)nc32)cc1 | 6.36
* NCCCCCCNC(=O)COc1ccc(CCCn2ncc3c2nc(N)n2nc(-c4ccco4)nc32)cc1 | 22.8
* NCCCNC(=O)COc1ccc(CCCn2ncc3c2nc(N)n2nc(-c4ccco4)nc32)cc1 | 9.29
* NCCCCNC(=O)COc1ccc(CCCn2ncc3c2nc(N)n2nc(-c4ccco4)nc32)cc1 | 6.46
* N.Nc1nc2c(cnn2CCCc2ccc(OCc3ccc(S(=O)(=O)O)cc3)cc2)c2nc(-c3ccco3)nn12 | 6.2

###

Target: A3AR (Homo sapiens)
Construct: expressed in transfected cells
Sequence (P0DMS8 1-318): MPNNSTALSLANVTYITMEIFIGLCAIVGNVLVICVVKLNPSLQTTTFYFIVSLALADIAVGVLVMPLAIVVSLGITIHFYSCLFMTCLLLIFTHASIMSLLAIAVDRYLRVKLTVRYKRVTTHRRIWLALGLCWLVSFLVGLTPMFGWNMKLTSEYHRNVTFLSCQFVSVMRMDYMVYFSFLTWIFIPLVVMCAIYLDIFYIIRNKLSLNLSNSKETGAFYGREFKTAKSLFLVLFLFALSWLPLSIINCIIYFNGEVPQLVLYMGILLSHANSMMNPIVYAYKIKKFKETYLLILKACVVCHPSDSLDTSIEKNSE
Test: Competition radioligand binding, hA3AR ([125I]I-AB-MECA)
Settings: HEK-293 membranes, [125I]I-AB-MECA 0.2 nM, 1 h 25 °C, mean ± SEM, read-out: Affinity, Ki, A3
pKi: −log10 of the molar value.
MEASUREMENT_LABEL: pKi

• NCCCNC(=O)COc1ccc(CCCn2ncc3c2nc(N)n2nc(-c4ccco4)nc32)cc1 = 5.66
• NCCCCNC(=O)COc1ccc(CCCn2ncc3c2nc(N)n2nc(-c4ccco4)nc32)cc1 = 5.22
• NCCCCCNC(=O)COc1ccc(CCCn2ncc3c2nc(N)n2nc(-c4ccco4)nc32)cc1 = 6.18
• NCCCCCCNC(=O)COc1ccc(CCCn2ncc3c2nc(N)n2nc(-c4ccco4)nc32)cc1 = 5.68
• N.Nc1nc2c(cnn2CCCc2ccc(OCc3ccc(S(=O)(=O)O)cc3)cc2)c2nc(-c3ccco3)nn12 = 5.58

###

inhibition at 10 µM values by entry
Target: mA1AR (Mus musculus, UniProt Q60612)
Construct: expressed in transfected cells; host or cells: HEK-293
Sequence (Q60612 whole entry): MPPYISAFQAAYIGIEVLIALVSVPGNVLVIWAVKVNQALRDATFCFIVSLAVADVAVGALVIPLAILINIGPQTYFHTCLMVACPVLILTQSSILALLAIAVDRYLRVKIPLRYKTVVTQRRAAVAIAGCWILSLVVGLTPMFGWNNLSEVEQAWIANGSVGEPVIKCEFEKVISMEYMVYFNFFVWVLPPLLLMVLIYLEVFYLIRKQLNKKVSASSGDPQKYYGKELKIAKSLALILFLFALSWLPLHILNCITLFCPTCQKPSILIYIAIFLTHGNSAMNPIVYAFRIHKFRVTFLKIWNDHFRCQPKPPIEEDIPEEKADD
Assay: Competition radioligand binding, mA1AR
Conditions: mouse A1AR, percent inhibition at 10 μM
MEASUREMENT_LABEL: inhibition at 10 µM (%)

- CCN(CC)CC.CCN(CC)CC.N=c1ccc2c(-c3ccc(C(=O)NCCCCNC(=O)COc4ccc(CCCn5ncc6c5nc(N)n5nc(-c7ccco7)nc65)cc4)cc3C(=O)O)c3ccc(N)c(S(=O)(=O)O)c3oc-2c1S(=O)(=O)O: 0
- Nc1nc2c(cnn2CCCc2ccc(OCC(=O)NCCCCNC(=O)CCCCCNC(=O)COc3ccc(/C=C/C4=[N+]5C(=Cc6ccc(-c7cccs7)n6[B-]5(F)F)C=C4)cc3)cc2)c2nc(-c3ccco3)nn12: 0
- N.Nc1nc2c(cnn2CCCc2ccc(OCc3ccc(S(=O)(=O)O)cc3)cc2)c2nc(-c3ccco3)nn12: 21
- CC1(C)C(/C=C/C=C/C=C2/N(CCCS(=O)(=O)O)c3ccc(S(=O)(=O)O)cc3C2(C)CCCCCC(=O)NCCNC(=O)COc2ccc(CCCn3ncc4c3nc(N)n3nc(-c5ccco5)nc43)cc2)=[N+](CCCS(=O)(=O)O)c2ccc(S(=O)(=O)[O-])cc21 (stereo not shown): 3
